Assay: CelltiterGlo viability cell assay
Format: cell-based
Details: human, HCC1806 breast cancer cells, HCC1806, 6 day, 0.03 uM; read-out: viability Replicate 3
reported endpoint: viability at 6 day, 0.03 µM (%)
Only the number, expressed in %, is required.

**Q:** // returns reported viability at 6 day, 0.03 µM for input COc1cc(OC)cc(-c2noc(N3CCN(C)C4(CCN(c5ccnc(C)c5)CC4)C3)n2)c1
**A:** 106

---

Assay: CelltiterGlo viability cell assay
Assay type: cell-based
Conditions: human, MDA-MB-436 breast cancer cells, MDA MB436, 6 day, 0.1 uM; read-out: viability Replicate 1
reported endpoint: viability at 6 day, 0.1 µM (%)
Only the number, expressed in %, is required.

**Q:** // returns reported viability at 6 day, 0.1 µM for input COc1cc(OC)cc(-c2noc(N3CCN(C)C4(CCN(c5ccnc(C)c5)CC4)C3)n2)c1
**A:** 105

---

Assay: CelltiterGlo viability cell assay
Format: cell-based
Settings: human, HCC1806 breast cancer cells, HCC1806, 3 day, 3 uM; read-out: viability Replicate 1
reported endpoint: viability at 3 day, 3 µM (%)
Only the number, expressed in %, is required.

**Q:** // returns reported viability at 3 day, 3 µM for input COc1cc(OC)cc(-c2noc(N3CCN(C)C4(CCN(c5ccnc(C)c5)CC4)C3)n2)c1
**A:** 92.2

---

Experiment: CelltiterGlo viability cell assay
Type: cell-based
Conditions: human, SKMM2 multiple myeloma cells, SKMM2, 3 day, 1 uM; read-out: viability Replicate 3
reported endpoint: viability at 3 day, 1 µM
Answer as a quantity: numeral, then unit.

**Q:** // returns reported viability at 3 day, 1 µM for input COc1cc(OC)cc(-c2noc(N3CCN(C)C4(CCN(c5ccnc(C)c5)CC4)C3)n2)c1 [MRK-740]
**A:** 104%

---

Test: CelltiterGlo viability cell assay
Type: cell-based
Details: human, RPMI-8226 multiple myeloma cells, 8226, 3 day, 0.1 uM; read-out: viability Replicate 1
reported endpoint: viability at 3 day, 0.1 µM (%)
Only the number, expressed in %, is required.

**Q:** // returns reported viability at 3 day, 0.1 µM for input COc1cc(OC)cc(-c2noc(N3CCN(C)C4(CCN(c5ccnc(C)c5)CC4)C3)n2)c1 [MRK-740]
**A:** 99.2

---

Test: CelltiterGlo viability cell assay
Assay type: cell-based
Settings: human, HCC1143 breast cancer cells, HCC1143, 6 day, 0.3 uM; read-out: viability Replicate 2
reported endpoint: viability at 6 day, 0.3 µM (%)
Only the number, expressed in %, is required.

**Q:** // returns reported viability at 6 day, 0.3 µM for input COc1cc(OC)cc(-c2noc(N3CCN(C)C4(CCN(c5ccnc(C)c5)CC4)C3)n2)c1
**A:** 111

---

Experiment: CelltiterGlo viability cell assay
Type: cell-based
Conditions: human, HCC1806 breast cancer cells, HCC1806, 6 day, 0.1 uM; read-out: viability Replicate 3
reported endpoint: viability at 6 day, 0.1 µM (%)
Only the number, expressed in %, is required.

**Q:** // returns reported viability at 6 day, 0.1 µM for input COc1cc(OC)cc(-c2noc(N3CCN(C)C4(CCN(c5ccnc(C)c5)CC4)C3)n2)c1
**A:** 106

---

Test: CelltiterGlo viability cell assay
Format: cell-based
Conditions: human, HCC1806 breast cancer cells, HCC1806, 6 day, 0.01 uM; read-out: viability Replicate 2
reported endpoint: viability at 6 day, 0.01 µM (%)
Only the number, expressed in %, is required.

**Q:** // returns reported viability at 6 day, 0.01 µM for input COc1cc(OC)cc(-c2noc(N3CCN(C)C4(CCN(c5ccnc(C)c5)CC4)C3)n2)c1
**A:** 100

---

Experiment: CelltiterGlo viability cell assay
Type: cell-based
Conditions: human, HCC1806 breast cancer cells, HCC1806, 3 day, 0.01 uM; read-out: viability Replicate 2
reported endpoint: viability at 3 day, 0.01 µM (%)
Only the number, expressed in %, is required.

**Q:** // returns reported viability at 3 day, 0.01 µM for input COc1cc(OC)cc(-c2noc(N3CCN(C)C4(CCN(c5ccnc(C)c5)CC4)C3)n2)c1
**A:** 110

---

Assay: CelltiterGlo viability cell assay
Assay type: cell-based
Conditions: human, SKMM2 multiple myeloma cells, SKMM2, 6 day, 9.5 uM; read-out: viability Average
reported endpoint: viability at 6 day, 9.5 µM (%)
Only the number, expressed in %, is required.

**Q:** // returns reported viability at 6 day, 9.5 µM for input COc1cc(OC)cc(-c2noc(N3CCN(C)C4(CCN(c5ccnc(C)c5)CC4)C3)n2)c1 [MRK-740]
**A:** 94.5

---

Test: CelltiterGlo viability cell assay
Type: cell-based
Conditions: human, RPMI-8226 cells (multiple myeloma line), 8226, 6 day, 0.01 uM; read-out: viability Replicate 1
reported endpoint: viability at 6 day, 0.01 µM (%)
Only the number, expressed in %, is required.

**Q:** // returns reported viability at 6 day, 0.01 µM for input COc1cc(OC)cc(-c2noc(N3CCN(C)C4(CCN(c5ccnc(C)c5)CC4)C3)n2)c1
**A:** 101

---

Test: CelltiterGlo viability cell assay
Assay type: cell-based
Details: human, HCC1806 breast cancer cells, HCC1806, 3 day, 1 uM; read-out: viability Replicate 3
reported endpoint: viability at 3 day, 1 µM (%)
Only the number, expressed in %, is required.

**Q:** // returns reported viability at 3 day, 1 µM for input COc1cc(OC)cc(-c2noc(N3CCN(C)C4(CCN(c5ccnc(C)c5)CC4)C3)n2)c1 [MRK-740]
**A:** 94.5

---

Experiment: CelltiterGlo viability cell assay
Assay type: cell-based
Settings: human, MDA-MB-436 breast cancer cells, MDA MB436, 3 day, 9.5 uM; read-out: viability Replicate 3
reported endpoint: viability at 3 day, 9.5 µM (%)
Only the number, expressed in %, is required.

**Q:** // returns reported viability at 3 day, 9.5 µM for input COc1cc(OC)cc(-c2noc(N3CCN(C)C4(CCN(c5ccnc(C)c5)CC4)C3)n2)c1
**A:** 87.6

---

Assay: CelltiterGlo viability cell assay
Assay type: cell-based
Details: human, SKMM2 multiple myeloma cells, SKMM2, 6 day, 3 uM; read-out: viability Replicate 1
reported endpoint: viability at 6 day, 3 µM

**Q:** // returns reported viability at 6 day, 3 µM for input COc1cc(OC)cc(-c2noc(N3CCN(C)C4(CCN(c5ccnc(C)c5)CC4)C3)n2)c1 [MRK-740]
**A:** 85.2%

---

Experiment: CelltiterGlo viability cell assay
Type: cell-based
Conditions: human, HCC1806 breast cancer cells, HCC1806, 6 day, 0.1 uM; read-out: viability Average
reported endpoint: viability at 6 day, 0.1 µM (%)
Only the number, expressed in %, is required.

**Q:** // returns reported viability at 6 day, 0.1 µM for input COc1cc(OC)cc(-c2noc(N3CCN(C)C4(CCN(c5ccnc(C)c5)CC4)C3)n2)c1 [MRK-740]
**A:** 106

---

Assay: CelltiterGlo viability cell assay
Assay type: cell-based
Conditions: human, RPMI-8226 cells (multiple myeloma line), 8226, 3 day, 30 uM; read-out: viability Replicate 3
reported endpoint: viability at 3 day, 30 µM (%)
Only the number, expressed in %, is required.

**Q:** // returns reported viability at 3 day, 30 µM for input COc1cc(OC)cc(-c2noc(N3CCN(C)C4(CCN(c5ccnc(C)c5)CC4)C3)n2)c1
**A:** 56

---

Experiment: CelltiterGlo viability cell assay
Assay type: cell-based
Conditions: human, SKMM2 cells (multiple myeloma line), SKMM2, 6 day, 0.01 uM; read-out: viability Replicate 1
Description: Supplementary Figure 13. […] Viability of (a) Multiple Myeloma lines and (b) Breast Cancer cell lines following 3 or 6 days treatment with […] manufacturer’s instructions as described in the Supplementary methods. Data are normalized to DMSO control. N=3 biological replicates, +/- SEM. Source data are provided as a Source Data […] CelltiterGlo viability cell assay […]
reported endpoint: viability at 6 day, 0.01 µM (%)
Only the number, expressed in %, is required.

**Q:** // returns reported viability at 6 day, 0.01 µM for input COc1cc(OC)cc(-c2noc(N3CCN(C)C4(CCN(c5ccnc(C)c5)CC4)C3)n2)c1
**A:** 96.8

---

Experiment: CelltiterGlo viability cell assay
Type: cell-based
Details: human, RPMI-8226 cells, 8226, 3 day, 0.03 uM; read-out: viability Average
reported endpoint: viability at 3 day, 0.03 µM (%)
Only the number, expressed in %, is required.

**Q:** // returns reported viability at 3 day, 0.03 µM for input COc1cc(OC)cc(-c2noc(N3CCN(C)C4(CCN(c5ccnc(C)c5)CC4)C3)n2)c1
**A:** 99.5

---

Assay: CelltiterGlo viability cell assay
Assay type: cell-based
Settings: human, CAL851 breast cancer cells, CAL851, 3 day, 0.01 uM; read-out: viability Replicate 3
reported endpoint: viability at 3 day, 0.01 µM (%)
Only the number, expressed in %, is required.

**Q:** // returns reported viability at 3 day, 0.01 µM for input COc1cc(OC)cc(-c2noc(N3CCN(C)C4(CCN(c5ccnc(C)c5)CC4)C3)n2)c1
**A:** 101
